pIC50 values for the molecules below.
targetUnderTest: Cyclic GMP-AMP synthase (Homo sapiens)
Sequence (Q8N884 whole entry): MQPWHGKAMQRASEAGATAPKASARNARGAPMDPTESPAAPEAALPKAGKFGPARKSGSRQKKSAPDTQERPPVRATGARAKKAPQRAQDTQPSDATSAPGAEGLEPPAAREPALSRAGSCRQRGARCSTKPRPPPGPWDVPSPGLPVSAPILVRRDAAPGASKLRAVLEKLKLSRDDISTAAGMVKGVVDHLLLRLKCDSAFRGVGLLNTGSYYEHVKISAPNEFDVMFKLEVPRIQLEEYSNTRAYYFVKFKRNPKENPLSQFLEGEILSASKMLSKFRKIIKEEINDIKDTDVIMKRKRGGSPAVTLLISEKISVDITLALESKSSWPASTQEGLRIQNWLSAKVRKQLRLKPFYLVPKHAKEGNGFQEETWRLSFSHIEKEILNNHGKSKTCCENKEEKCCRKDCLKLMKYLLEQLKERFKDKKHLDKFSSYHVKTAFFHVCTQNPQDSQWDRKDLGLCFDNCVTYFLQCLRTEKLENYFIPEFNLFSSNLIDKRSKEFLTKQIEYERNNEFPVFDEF
assayProcedure: Inhibition of recombinant His6-SUMO tagged human CGAS expressed in Escherichia coli BL21/pLys cells incubated for 20 mins by Kinase Glo chemiluminescence assay
pIC50: −log10 of the molar value.

Use the examples below as a reference point.
// query Report pIC50 for COCCNc1ncc(C(C)Oc2cc(/C=C3\SC(=O)N(C)C3=O)c(Br)cc2O)cn1 (stereo unspecified) please.
// result 5.00 to 6.30

// query Proceed to "CN1C(=O)S/C(=C\c2ccc(O)cc2Br)C1=O"
// result ≤ 5.00

// query Ok, now "CN1C(=O)S/C(=C\c2cc(OCc3cncnc3N)c(O)c(F)c2Br)C1=O"
// result ≥ 6.30

// query Record: "COc1cc(/C=C2\Sc3ncccc3C2=O)c(Br)cc1O"
// result ≥ 6.30

Continuing:
// query What measured pIC50 goes with [2H]C(C)(Oc1cc(/C=C2\SC(=O)N(C)C2=O)c(Br)c(F)c1O)c1cnc(N)nc1 (stereo unspecified) ?
// result ≥ 6.30

// query Same for "C/N=C1/S/C(=C\c2cc(OC)c(O)cc2Br)C(=O)N1C"
// result ≤ 5.00

// query Thanks! And "COc1cc(/C=C2\SC(=O)N(C)C2=O)c(Br)cc1Oc1cnc(NCc2cccnc2)s1" ?
// result ≤ 5.00

// query Another molecule: "CN1C(=O)S/C(=C\c2cc(OCc3cncnc3N)c(O)cc2Br)C1=O"
// result ≥ 6.30

// query Similarly, "CN1C(=O)S/C(=C\c2cc(OCc3cnc(NCc4ccncc4)nc3)c(O)c(F)c2Br)C1=O" ?
// result ≥ 6.30

// query Same again, this time with "COc1cc(/C=C2\SC(=O)N(C)C2=O)c(Cl)cc1O"
// result ≥ 6.30

// query Then this molecule: COc1nc([S+](C)[O-])ncc1COc1cc(/C=C2\SC(=O)N(C)C2=O)c(Br)cc1O (stereo unspecified)
// result ≤ 5.00

// query One more molecule: "CN1C(=O)S/C(=C\c2cc(Oc3cccc4c3COCC4)c(O)cc2Br)C1=O"
// result ≤ 5.00

// query Here is the next molecule: "CN1C(=O)S/C(=C\c2cc(OCc3cnc(-c4ccncc4)nc3)c(O)cc2Br)C1=O"
// result ≥ 6.30

// query // query: "CCOc1cc(/C=C2\Sc3ncccc3C2=O)c(Br)cc1O"
// result ≥ 6.30

// query Repeat for the following molecule: "CN1C(=O)S/C(=C\c2cc(OCc3cnc(NCc4ccncc4)nc3)c(O)cc2Br)C1=O"
// result ≥ 6.30

// query // next record CC(Cc1cnc(N)nc1)Oc1cc(/C=C2\SC(=O)N(C)C2=O)c(Br)c(F)c1O (stereo unspecified)
// result 5.00 to 6.30

// query Check CC(Oc1cc(/C=c2\sc3nccn3c2=O)c(Br)c(F)c1O)c1cnc(N)nc1 (stereo unspecified) too.
// result 5.00 to 6.30

// query Another molecule to check: "CN1C(=O)S/C(=C\c2cc(OCc3cncc(NCc4ccccn4)c3)c(O)cc2Br)C1=O"
// result ≤ 5.00
